- studyTarget: Cytochrome P450 3A4 (Homo sapiens)
- experimentDescription: qHTS Assay for Activators of Cytochrome P450 3A4 (AID 885); further: nearly all actives have a fitted effect of over 65% in size
- measurementSetup: recombinant CYP3A4, Luciferin-PPXE luminescence, 60 min; series mostly up to 57.1 µM
Active and inactive are the calls of the source. The call rests on the fitted dose curve; in most records, active means well fitted activation curve with a large enough effect; inconclusive means small, poorly fitted or top-dose-only effect; inactive means no such curve, though single readings can be large or run the other way.
propertyLabel: activity change, positive = activation

Completed entries (count: 4):
C/C=C/OC(=O)NC(c1ccccc1)[C@@]1(C(=O)OC)CCCC1=O (stereo partly drawn) ... -81.6% [at 11.4 µM] (inactive)
COc1cc2c(cc1OC)C(=O)OC2 ... inactive
COC(=O)c1ccc(C23CC4(C2)[C@H](CN(CC2CCCCC2)[C@@H]4c2ccccc2)C3c2ccc(Cl)nc2)cc1 (stereo partly drawn) ... inactive
COC(=O)CNC(=O)C1(C)C=CC2(CCCCC2)N1C(=O)OC (stereo not drawn) ... inactive

[Q] Request body: readout activity change, positive = activation, system Cytochrome P450 3A4 (Homo sapiens), query "O=C1CCCC=C1[C@H](CCc1ccccc1)OC(=O)c1ccc(Br)cc1" . Return the value.
[A] -49.6% [at 11.4 µM] (inactive)

[Q] Find the measured activity change, positive = activation: item "C/C(CCC(=O)OC[C@@H]1O[C@H](C#Cc2ccccc2)C=C[C@@H]1Oc1ccc(C)cc1)=N/OC[C@@H](O)[C@H]1O[C@H]2OC(C)(C)O[C@H]2[C@@H]1O" , target or system Cytochrome P450 3A4 (Homo sapiens).
[A] -117% [at 11.4 µM] (inactive)

[Q] Param readout = activity change, positive = activation; param system = Cytochrome P450 3A4 (Homo sapiens); param query = "CCC1=C(OC(=O)N(CC)CC)N2C(=O)OC(=NCCc3c[nH]c4ccccc34)[C@]2(C)[C@H]2C1=CC[C@H]1C(=O)N(CC)C(=O)[C@H]12" ; response: value
[A] inactive

[Q] // map Clc1ccc(C2[C@H]3CN(Cc4ccc(-c5ccccc5)cc4)[C@H](c4ccccc4)C34CC2(c2ccccc2)C4)cn1 (stereo partly drawn) to recorded activity change, positive = activation (system: Cytochrome P450 3A4 (Homo sapiens))
[A] inactive

* * *

- experimentDescription: qHTS for Inhibitors of Plasmodium falciparum (7G8) proliferation (AID 504316); further: nearly all actives have a fitted effect of over 65% in size
- measurementSetup: P. falciparum 7G8 in erythrocytes, SYBR Green DNA, 72 h; series mostly up to 6.7 µM
Results filed as inconclusive are left out. Calls of active or inactive are those of the source. Calls come from the whole dose curve; as a rule, active = well fitted inhibition curve with a large enough effect; inconclusive = small, poorly fitted or top-dose-only effect; inactive = flat fitted curve, though single readings scatter.
Use one of these outcomes when replying: true (1) (active), false (0) (inactive)

COC(=O)N1C2CC(=O)O[C@@H]3c4cc5c(cc4[C@]1(C)[C@@]3(Br)c1ccccc12)OCO5 ... true (1)
COC(=O)C(C(=O)OC)[C@@H]1c2ccccc2[C@H]2C(=C[C@@H](C)[C@H]3C(=O)N(c4ccccc4)C(=O)[C@H]32)N1C(=O)OC ... false (0)
COC(=O)CCC(=O)OC1(C)C(=O)C2=CN(Cc3ccc(OC)cc3)C(c3ccc(OC)cc3)=CC2=C(Br)C1=O (stereo not drawn) ... false (0)
COC(=O)C1=C(C(=O)OC)[C@@H]2N(C)c3ccc(OC)cc3[C@@]23C[C@@H](C(=O)OC)N(C(C)=O)C3=N1 ... false (0)
CCCCC1=CC2=CC(=O)C(C)(OC(=O)CC)C(=O)C2=CN1Cc1ccccc1 (stereo not drawn) ... false (0)
c1ccc(-c2nc(-c3cccc4ccccc34)c(Nc3ccc4ccccc4c3)o2)cc1 ... true (1)
CC1(OC(=O)CCc2ccccc2)C(=O)C=C2C=C(c3ccc(C#N)cc3)N(c3ccccc3)C=C2C1=O (stereo not drawn) ... false (0)

[Q] // return assay outcome for "COC(=O)C1=C(C(=O)OC)[C@@H]2Nc3ccccc3[C@@]23C[C@@H](C(=O)OC)N(C(=O)c2ccco2)C3=N1"
[A] false (0)

* * *

Measured activation accompanies every entry in the list below.
- studyTarget: Glucocorticoid receptor (Homo sapiens)
- experimentDescription: qHTS assay for small molecule agonists of glucocorticoid receptor signaling (AID 588532);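 further: 100% = dexamethasone at 0.1 µM and 0% = DMSO only wells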
- measurementSetup: HeLa MMTV-bla, beta-lactamase ratio, agonist, 18 h; hits give high values; percent of dexamethasone control, DMSO zero
Records with an inconclusive call do not appear.
The answer is to be given in %; state only the numeric part.

[Q] For the compound O=C=NC1CCC(CC2CCC(N=C=O)CC2)CC1 (stereo not given) , what activation is on record?
[A] -3.36

[Q] So what does the record say about activation for CCCCC(CC)COC(C)=O (stereo not given) ?
[A] -0.969

[Q] GET /values?readout=activation&item= CCC/C(=N\OCC)C1=C(O)CC(O)(CC(C)S(=O)(=O)CC)CC1=O (stereo not given)
[A] -6.04

[Q] Name the recorded activation for CC[C@H](C)C1O[C@]2(C=C[C@@H]1C)C[C@@H]1C[C@@H](C/C=C(\C)[C@@H](O[C@H]3C[C@H](OC)[C@@H](O[C@H]4C[C@H](OC)[C@H](NC(C)=O)[C@H](C)O4)[C@H](C)O3)[C@@H](C)/C=C/C=C3\CO[C@@H]4[C@H](O)C(C)=C[C@@H](C(=O)O1)[C@]34O)O2 (stereo not given in full) .
[A] -14.6

* * *

- experimentDescription: qHTS assay for small molecule activators of the nuclear factor-kappa B (NF-kB) signaling pathway (AID 651749); further: % of control where 0% means no effect
- measurementSetup: NF-kB-bla ME-180 cells, beta-lactamase FRET ratio, 16 h; hits give high values
Inconclusive results are not listed.
The entries below are paired with their reported activation.
# unit: % | format: bare number

A selection of reference data follows.
CCC(=O)OCCc1ccccc1 ... 1.34
CCCCCCCCCCCCCCO ... 0.681
CC(C)(C)c1ccc(O)c(C(C)(C)C)c1 ... -1.75

[Q] I'd like to know its activation. The molecule in question is "CC(C)CCCCCCCCCCCCCCC(=O)O"
[A] -0.531

* * *

In this section, each of the compounds is paired with its reported Potency.
- studyTarget: Vitamin D3 receptor (Homo sapiens) (UniProt P11473)
- Sequence (P11473 whole entry, looked up): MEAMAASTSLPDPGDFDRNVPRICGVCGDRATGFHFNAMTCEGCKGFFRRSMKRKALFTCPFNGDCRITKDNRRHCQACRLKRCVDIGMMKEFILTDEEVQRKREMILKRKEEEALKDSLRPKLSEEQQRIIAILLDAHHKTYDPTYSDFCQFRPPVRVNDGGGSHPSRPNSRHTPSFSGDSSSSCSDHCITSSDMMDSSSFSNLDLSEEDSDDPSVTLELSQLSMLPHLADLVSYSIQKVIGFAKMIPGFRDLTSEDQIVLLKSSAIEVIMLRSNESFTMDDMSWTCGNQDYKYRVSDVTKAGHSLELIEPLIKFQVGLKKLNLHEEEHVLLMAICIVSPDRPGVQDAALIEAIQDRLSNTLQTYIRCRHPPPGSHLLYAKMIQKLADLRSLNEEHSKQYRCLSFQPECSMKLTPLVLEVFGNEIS
- experimentDescription: qHTS for Inhibitors of the vitamin D receptor (VDR): Hit Validation using a Fluorescein Assay (AID 602200); further: potency means the concentration at half of the fitted maximal effect
- measurementSetup: VDR-coactivator binding, fluorescein fluorescence polarization
This is one part of the list. Active and inactive are the calls of the source. The call rests on the fitted dose curve; in most records, active means well fitted inhibition curve with a large enough effect; inconclusive means small, poorly fitted or top-dose-only effect, or another doubt; inactive means no such curve, though single readings can be large or run the other way.

The following compounds have reported results that may help.
CCOC(=O)c1sc(=S)n2c1[nH]c(=O)c1ccc(C(=O)OC)cc12 ... 6.31 µM (active)
O=C1C=C(c2ccc(Cl)cc2)C(=O)N1Nc1ccccc1 ... 1.78 µM (active)
C[C@@H](NC(=O)OC(C)(C)C)c1nnc(S(=O)(=O)Cc2ccccc2)o1 ... 17.8 µM (active)
Cc1ccc(O)c(NC(=O)CCS(=O)(=O)c2nc(-c3ccc4c(c3)OCO4)cc(C(F)(F)F)n2)c1 ... 6.31 µM (active)
CC(=O)N(C1=C(Cl)C(=O)c2ccccc2C1=O)c1ccc(C(=O)O)cc1 ... 2.82 µM (active)
Cc1cccc(Oc2c([N+](=O)[O-])c(=O)n(C)c3ccccc23)c1 ... 20 µM (active)
Cc1cc(C)nc(S/C=C/C(=O)c2ccccc2)n1 ... 3.55 µM (active)
COc1ccc(OCc2nnc3n2N=C(c2ccccc2)C(CC(=O)O)S3)cc1 (stereo unspecified) ... 1.12 µM (active)
O=C(Nc1nc(-c2ccncc2)cs1)C1COc2ccccc2O1 (stereo unspecified) ... 3.16 µM (active)
Cc1ccc(-c2nc3ccccn3c2Nc2c(C)cccc2C)o1 ... 28.2 µM (active)

[Q] Would you mind telling me what Potency value was observed for "O=C(/C=C/c1ccccc1)c1ccccc1O" ?
[A] 14.1 µM (active)

* * *

- experimentDescription: qHTS assay for small molecule agonists of the antioxidant response element (ARE) signaling pathway (AID 651741); further: % of control where 0% means no effect
- measurementSetup: HepG2 ARE-bla reporter, beta-lactamase FRET ratio, 16 h; series mostly up to 96 µM
- Description: National Center for Advancing Translational Sciences [NCATS] NIH Chemical Genomics Center [NCGC] U.S. Environmental Protection Agency [EPA] National Institutes of Environmental Health Sciences [NIEHS] National Toxicology Program [NTP] Oxidative stress has been implicated in the pathogenesis of a variety of diseases ranging from cancer to neurodegeneration. […] The activation of the report gene under culture conditions can be detected by fluorescence intensity. […]
Records with an inconclusive call do not appear. Active and inactive are the calls of the source. Calls come from the whole dose curve; as a rule, active = well fitted activation curve with a large enough effect in the signal ratio; inconclusive = small, poorly fitted or top-dose-only effect, or effect the other way, or a change in a side signal; inactive = flat fitted curve, though single readings scatter; the % refers to the signal ratio.
Just give me one of these, please: active, inactive

As a guide, the following entries are already answered.
C[C@]12CC[C@@H]3c4ccc(O)cc4CC[C@H]3[C@@H]1CC[C@H]2O ... inactive
CC(COCC(C)OC(=O)c1ccccc1)OC(=O)c1ccccc1 (centres undefined) ... inactive
CSc1ccc(Cl)cc1 ... inactive
O=c1oc(=O)c2cc3c(=O)oc(=O)c3cc12 ... inactive

Query molecule follows.
[Q] Fill in: this test's call for "CCCC/C=C\CCCCCCCCO" is ___
[A] inactive
